Origin of the recorded values: ChEMBL document CHEMBL1154674

Assay: Biodistribution in NMRI mouse spleen/pancreas assessed per gram of tissue at 3.7 MBq/mL, iv after 60 mins by gamma counting
Type: ADME, organism-based
Settings: in vivo, 1 h
value type: Drug uptake (%)
Report only the number, with the unit % understood.

# example entries with known answers
Ask: Dear colleague, I am looking for the recorded Drug uptake of the following compound: [11CH3]Nc1ccc(-c2nc3ccc(O)cc3s2)cc1
Reply: 0.7

Ask: Need Drug uptake of Nc1ccc2nc(-c3ccc([18F])cc3)sc2c1 , thanks.
Reply: 1.1

Ask: Can you look up the measured Drug uptake of CN(C)c1ccc2nc(-c3ccc([18F])cc3)sc2c1 for me?
Reply: 1

Ask: Recorded Drug uptake for CNc1ccc2nc(-c3ccc([18F])cc3)sc2c1 , please?
Reply: 0.9

Switching to the query record.
Ask: Name the recorded Drug uptake for Cc1ccc2nc(-c3ccc([18F])cc3)sc2c1 .
Reply: 0.4
